System: E. coli TESEC Mtb Alr
assay_notes: growth (OD600 after 10 h); higher = more growth (less inhibition)
setup_conditions: arabinose 1000000 nM; compound 0.1 mM; raw OD600 reference: median of DMSO wells 0.193, cell-free background 0.041
Structures can show the parent of a compound that is named as a salt.
Provide the reported growth of each item.
Just the number.

Please report the recorded growth for C[C@]12CCC(=O)C=C1CC[C@@H]1[C@@H]2C(=O)C[C@@]2(C)[C@H]1CC[C@]2(O)C(=O)CO .
0.18

Please report the recorded growth for CCCCOc1ccc(C(=O)CCN2CCCCC2)cc1 [Dyclonine hydrochloride] .
0.143

Please report the recorded growth for CO/N=C(\C(=O)N[C@@H]1C(=O)N2C(C(=O)O)=C(COC(N)=O)CS[C@H]12)c1ccco1 [Cefuroxime sodium salt] .
0.0701

Please report the recorded growth for CC(CNC1CCCCC1)OC(=O)c1ccccc1 (stereo not given) [Hexylcaine hydrochloride] .
0.173

Please report the recorded growth for CCCC(CCC)C(=O)O .
0.22

====

Provide the reported growth of each item.
Tested on: E. coli TESEC Mtb Alr
assay_notes: growth (OD600 after 10 h); higher = more growth (less inhibition)
setup_conditions: arabinose 1000000 nM; compound 0.1 mM; raw OD600 reference: median of DMSO wells 0.193, cell-free background 0.041
Where a name gives a salt, the structure may show the parent alone.
Just the number.

Please report the recorded growth for Nc1ncnc2c1ncn2C1OC(COP(=O)(O)O)C(O)C1O (stereo not drawn) [Adenosine 5'-monophosphate monohydrate] .
0.175

Please report the recorded growth for Nc1nc(N)nc(-c2cc(Cl)ccc2Cl)n1 [Irsogladine maleate] .
0.173

Please report the recorded growth for CCCC1C(=O)N2C(N(C)C)=Nc3ccc(C)cc3N2C1=O (stereo not drawn) .
0.158

Please report the recorded growth for CNCC(O)c1ccc(O)c(O)c1 (stereo not drawn) [Racepinephrine HCl] .
0.186

Please report the recorded growth for CCN(CC)C(=O)Nc1ccc(OCC(O)CNC(C)(C)C)c(C(C)=O)c1 (stereo not drawn) [Celiprolol HCl] .
0.171

Please report the recorded growth for C/C=C(/C(=C/C)c1ccc(O)cc1)c1ccc(O)cc1 .
0.0393

Please report the recorded growth for C[C@@H](O[C@H]1OCCN(Cc2n[nH]c(=O)[nH]2)[C@H]1c1ccc(F)cc1)c1cc(C(F)(F)F)cc(C(F)(F)F)c1 [Aprepitant] .
0.0675

Please report the recorded growth for Cc1ncc([N+](=O)[O-])n1CCO .
0.177

Please report the recorded growth for CN(CCOc1ccc(NS(C)(=O)=O)cc1)CCc1ccc(NS(C)(=O)=O)cc1 [Dofetilide] .
0.173

Please report the recorded growth for c1ccc(CN(CC2=NCCN2)c2ccccc2)cc1 [Antazoline hydrochloride] .
0.167

Please report the recorded growth for COc1cc(C(=O)NS(=O)(=O)c2ccccc2C)ccc1Cc1cn(C)c2ccc(NC(=O)OC3CCCC3)cc12 .
0.128

Please report the recorded growth for Cc1onc(-c2c(Cl)cccc2Cl)c1C(=O)N[C@@H]1C(=O)N2[C@@H]1SC(C)(C)[C@@H]2C(=O)O [Dicloxacillin sodium salt hydrate] .
0.185

Please report the recorded growth for N=c1nc(N2CCCCC2)cc(N)n1O .
0.166

Please report the recorded growth for NC(=O)c1ccc[n+]([C@@H]2O[C@H](COP(=O)([O-])OP(=O)(O)OC[C@H]3O[C@@H](n4cnc5c(N)ncnc54)[C@H](O)[C@@H]3O)[C@@H](O)[C@H]2O)c1 [Nadide] .
0.245

Please report the recorded growth for CC(C)NCC(O)c1ccc(O)c(O)c1 (single isomer, unassigned; (-)) [(-)-Isoproterenol hydrochloride] .
0.199

Please report the recorded growth for O=C(O)c1cccnc1 .
0.238

Please report the recorded growth for COc1c2occc2c(OC)c2c(=O)cc(C)oc12 .
0.149

Please report the recorded growth for CC#C[C@]1(O)CC[C@H]2[C@@H]3CCC4=CC(=O)CCC4=C3[C@@H](c3ccc(N(C)C)cc3)C[C@@]21C .
0.0733

Please report the recorded growth for CC(=O)Oc1ccccc1C(=O)Nc1ncc([N+](=O)[O-])s1 [Nitazoxanide] .
0.0434

Please report the recorded growth for CC[C@H]1OC(=O)[C@H](C)[C@@H](O[C@H]2C[C@@](C)(OC)[C@@H](O)[C@H](C)O2)[C@H](C)[C@@H](O[C@@H]2O[C@H](C)C[C@H](N(C)C)[C@H]2O)[C@](C)(O)C[C@@H](C)[C@@H]2N[C@@H](COCCOC)O[C@H]([C@H]2C)[C@]1(C)O .
0.0396

Please report the recorded growth for CCCNC(C)(C)COC(=O)c1ccccc1 [Meprylcaine hydrochloride] .
0.215

Please report the recorded growth for CNC[C@H](O)[C@@H](O)[C@H](O)[C@H](O)CO .
0.188

Please report the recorded growth for CCCCc1ccc2[nH]c(NC(=O)OC)nc2c1 .
0.206

Please report the recorded growth for CN(C)CCc1c[nH]c2ccc(Cn3cncn3)cc12 [Rizatriptan benzoate] .
0.213

Please report the recorded growth for CC(=O)N[C@@H](CC(=O)N[C@@H](CCC(=O)O)C(=O)O)C(=O)O .
0.198

Please report the recorded growth for NCCNCCNCCNCCN [Tetraethylenepentamine pentahydrochloride] .
0.181

Please report the recorded growth for CN(c1nccc(=O)[nH]1)C1CCN(c2nc3ccccc3n2Cc2ccc(F)cc2)CC1 .
0.0813

Please report the recorded growth for O=C(NCCNCC(O)COc1ccc(O)cc1)N1CCOCC1 (stereo not drawn) [Xamoterol hemifumarate] .
0.19

Please report the recorded growth for O=C(O)CCc1nc(-c2ccccc2)c(-c2ccccc2)o1 .
0.0905

Please report the recorded growth for O=C(CCCN1CCC(O)(c2ccc(Br)cc2)CC1)c1ccc(F)cc1 .
0.179

Please report the recorded growth for CCN1CCCC1CNC(=O)c1cc(S(N)(=O)=O)ccc1OC (stereo not drawn) [Sulpiride] .
0.174

Please report the recorded growth for CN(C)CCCOc1nn(Cc2ccccc2)c2ccccc12 [Benzydamine hydrochloride] .
0.112

Please report the recorded growth for Oc1c(Cl)cc(Cl)c2cccnc12 .
0.0415

====

Provide the reported growth of each item.
Tested on: E. coli TESEC Mtb Alr
assay_notes: growth (OD600 after 10 h); higher = more growth (less inhibition)
setup_conditions: arabinose 10000000 nM; compound 0.1 mM; raw OD600 reference: median of DMSO wells 0.146, cell-free background 0.041
Structures can show the parent of a compound that is named as a salt.

Please report the recorded growth for NC(=O)c1cnccn1 [Pyrazinamide] .
0.14

Please report the recorded growth for COc1c(O[C@@H]2O[C@H](CO)[C@@H](O)[C@H](O)[C@H]2O)cc2c(c1OC)-c1ccc(SC)c(=O)cc1[C@@H](NC(C)=O)CC2 [Thiocolchicoside] .
0.149

Please report the recorded growth for CC(C)NCC(O)COc1cccc2[nH]ccc12 (stereo not drawn) .
0.142

Please report the recorded growth for CC(=O)OCC(=O)[C@@]1(OC(C)=O)[C@@H](C)C[C@H]2[C@@H]3C[C@H](F)C4=CC(=O)C=C[C@]4(C)[C@@]3(F)[C@@H](O)C[C@@]21C [Diflorasone Diacetate] .
0.17

Please report the recorded growth for O=C(c1ccc(F)cc1)C1CCN(CCn2c(=O)[nH]c3ccccc3c2=O)CC1 [Ketanserin tartrate hydrate] .
0.17

Please report the recorded growth for Clc1cc(Cl)c(OCC#CI)cc1Cl .
0.168

Please report the recorded growth for COc1cc(NS(=O)(=O)c2ccc(N)cc2)ncn1 .
0.138

Please report the recorded growth for CC(COc1ccccc1)N(CCCl)Cc1ccccc1 (stereo not drawn) [Phenoxybenzamine hydrochloride] .
0.0621

Please report the recorded growth for CC(=O)NC[C@H]1CN(c2ccc(N3CCOCC3)c(F)c2)C(=O)O1 .
0.0474

Please report the recorded growth for COc1ccc2cc([C@H](C)C(=O)O)ccc2c1 .
0.132

Please report the recorded growth for CCCCC(O)c1ccccc1 (stereo not drawn) .
0.149

Please report the recorded growth for Cc1cc(C(C)(C)C)c(O)c(C)c1CC1=NCCN1 [Oxymetazoline hydrochloride] .
0.165

Please report the recorded growth for CC(C)[C@H](N)C(=O)OCCOCn1cnc2c(=O)nc(N)[nH]c21 [Valacyclovir hydrochloride] .
0.144

Please report the recorded growth for OCCN1CCN(CCCN2c3ccccc3Sc3ccc(C(F)(F)F)cc32)CC1 [Fluphenazine dihydrochloride] .
0.0405

Please report the recorded growth for C[C@]1(Cn2ccnn2)[C@H](C(=O)O)N2C(=O)C[C@H]2S1(=O)=O .
0.074

Please report the recorded growth for Cc1c(C)c2c(c(C)c1O)CCC(C)(COc1ccc(CC3SC(=O)NC3=O)cc1)O2 (stereo not drawn) .
0.104

Please report the recorded growth for CCc1ccc(CCOc2ccc(CC3SC(=O)NC3=O)cc2)nc1 (stereo not drawn) .
0.15

Please report the recorded growth for CCCCCCNC(=O)n1cc(F)c(=O)[nH]c1=O .
0.112
